- System: T19 cells
- TEST_DESCRIPTION: ODC (ornithine decarboxylase activity) assay of drug resistance, multidrug resistant T19 cells
- Type: cell-based, Chinese hamster
- RUN_PARAMETERS: Cricetulus griseus; incubation time 48 hr; mean of two to four independent experiments; read-out: IC50 (ODC assay) T19
MEASUREMENT_KIND: log10(IC50) (log10 of the value in µM)
For clarity, the numbers are log10 values of IC50 expressed in µM.

Req: Which measured log10(IC50) value corresponds to COc1cccc2c1C(=O)c1c(O)c3c(c(O)c1C2=O)C[C@@](O)(C(C)=O)C[C@@H]3O[C@H]1C[C@H](N)[C@H](O)[C@H](C)O1 ?
Resp: 0.27

Req: Which measured log10(IC50) value corresponds to COc1cccc2c1C(=O)c1c(O)c3c(c(O)c1C2=O)C[C@@](O)(C(=O)CO)C[C@@H]3O[C@H]1C[C@H](N)[C@H](O)[C@H](C)O1 ?
Resp: 0.55

Req: Which measured log10(IC50) value corresponds to CN(Cc1cnc2nc(N)nc(N)c2n1)c1ccc(C(=O)N[C@@H](CCC(=O)O)C(=O)O)cc1 [Methotrexate] ?
Resp: -1.20

Req: Which measured log10(IC50) value corresponds to COc1cc(NCc2ccc3nc(N)nc(N)c3c2C)cc(OC)c1OC [Trimetrexate] ?
Resp: -1.14

Req: Which measured log10(IC50) value corresponds to COc1ccc(C[C@H](N)C(=O)N[C@H]2[C@@H](O)[C@H](n3cnc4c(N(C)C)ncnc43)O[C@@H]2CO)cc1 ?
Resp: -0.50

Req: Which measured log10(IC50) value corresponds to COc1ccc(OC)c(Cc2cnc3nc(N)nc(N)c3c2C)c1 ?
Resp: -0.90

Req: Which measured log10(IC50) value corresponds to Cc1nc(N)nc(N)c1-c1ccc(Cl)c(Cl)c1 ?
Resp: -1.27

----------
- ASSAYED_SYSTEM: ornithine decarboxylase from AA8 cells (Cricetulus griseus, UniProt P14019)
- Sequence (P14019 whole entry): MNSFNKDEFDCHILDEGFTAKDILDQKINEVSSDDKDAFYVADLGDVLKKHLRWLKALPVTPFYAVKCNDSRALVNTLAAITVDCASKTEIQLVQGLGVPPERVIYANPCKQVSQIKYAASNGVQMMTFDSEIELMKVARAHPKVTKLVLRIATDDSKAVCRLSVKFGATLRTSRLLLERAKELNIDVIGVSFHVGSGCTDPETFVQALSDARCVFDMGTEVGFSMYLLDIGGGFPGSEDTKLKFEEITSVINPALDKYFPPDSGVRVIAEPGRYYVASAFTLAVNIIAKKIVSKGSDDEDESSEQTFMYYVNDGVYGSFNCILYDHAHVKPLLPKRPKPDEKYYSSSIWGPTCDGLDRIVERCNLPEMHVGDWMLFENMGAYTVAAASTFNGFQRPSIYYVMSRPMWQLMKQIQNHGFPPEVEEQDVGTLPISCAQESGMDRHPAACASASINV
- TEST_DESCRIPTION: biochemical
- RUN_PARAMETERS: IC50, concentration required to reduce the ornithine decarboxylase by 50%, extract of AA8-induced cells (received fresh serum-containing medium), 2x10^7 cells
MEASUREMENT_KIND: pIC50
# pIC50 is unitless: minus log10 of the molar concentration; print number only

Req: Which measured pIC50 value corresponds to NCCCC(N)(C(=O)O)C(F)F (racemic) [DMFO, DL-o-difluoromethylornithine] ?
Resp: 5.30

----------
- Tested on: AA8 cells
- TEST_DESCRIPTION: cells
- Assay type: cell-based, Chinese hamster
- RUN_PARAMETERS: Cricetulus griseus, CHO-AA8, read-out: LD50 (clonogenic assay) AA8
Numbered stars: 1 amine (or outer) side, 2 acyl side, 3 side chain; on linkers, the order of the positions; unused ones are H or OH. Bridge positions count the residues as written; N and C are the ends. Square brackets hold non-standard residues; d marks the D form. Peptide text beside a SMILES is read from it. I, II: the chains in the order shown. Actinocin(9to1) = Cc1c2oc3c(C)ccc(C(=O)[*:1])c3nc-2c(C(=O)[*:2])c(N)c1=O; NMeV = CN[C@H](C(=O)O)C(C)C; Sar = CNCC(=O)O
Consider the cut-off 4 nM. If the recorded IC50 is strictly smaller, the label is TRUE; if not, the label is FALSE.

Req: Lab note: confirm whether the reported IC50 for this compound is below 4 nM, equality not counting. compound: COc1cc(NCc2ccc3nc(N)nc(N)c3c2C)cc(OC)c1OC [Trimetrexate]
Resp: TRUE

Req: Lab note: confirm whether the reported IC50 for this compound is below 4 nM, equality not counting. compound: CN(Cc1cnc2nc(N)nc(N)c2n1)c1ccc(C(=O)N[C@@H](CCC(=O)O)C(=O)O)cc1 [Methotrexate]
Resp: FALSE

Req: Lab note: confirm whether the reported IC50 for this compound is below 4 nM, equality not counting. compound: Cc1c2oc3c(C)ccc(C(=O)N[C@@H]4C(=O)N[C@H](C(C)C)C(=O)N5CCC[C@H]5C(=O)N(C)CC(=O)N(C)[C@@H](C(C)C)C(=O)O[C@@H]4C)c3nc-2c(C(=O)N[C@@H]2C(=O)N[C@H](C(C)C)C(=O)N3CCC[C@H]3C(=O)N(C)CC(=O)N(C)[C@@H](C(C)C)C(=O)O[C@@H]2C)c(N)c1=O [Actinomycin D] (I: T[dV]P[Sar][NMeV] / II: T[dV]P[Sar][NMeV]; ester I:1-I:C, II:1-II:C; linker I:N-II:N via Actinocin(9to1))
Resp: TRUE

Req: Lab note: confirm whether the reported IC50 for this compound is below 4 nM, equality not counting. compound: COc1ccc(OC)c(Cc2cnc3nc(N)nc(N)c3c2C)c1 [Piritrexim]
Resp: FALSE

Req: Lab note: confirm whether the reported IC50 for this compound is below 4 nM, equality not counting. compound: CC[C@]1(O)C[C@@H]2CN(CCc3c([nH]c4ccccc34)[C@@](C(=O)OC)(c3cc4c(cc3OC)N(C)[C@H]3[C@@](O)(C(=O)OC)[C@H](OC(C)=O)[C@]5(CC)C=CCN6CC[C@]43[C@@H]65)C2)C1 [Vinblastine]
Resp: TRUE

Req: Lab note: confirm whether the reported IC50 for this compound is below 4 nM, equality not counting. compound: COc1cccc2c1C(=O)c1c(O)c3c(c(O)c1C2=O)C[C@@](O)(C(C)=O)C[C@@H]3O[C@H]1C[C@H](N)[C@H](O)[C@H](C)O1 [Daunorubicin]
Resp: FALSE

Req: Lab note: confirm whether the reported IC50 for this compound is below 4 nM, equality not counting. compound: CC[C@]1(O)C[C@H]2CN(CCc3c([nH]c4ccccc34)[C@@](C(=O)OC)(c3cc4c(cc3OC)N(C=O)[C@H]3[C@@](O)(C(=O)OC)[C@H](OC(C)=O)[C@]5(CC)C=CCN6CC[C@]43[C@@H]65)C2)C1 [Vincristine]
Resp: FALSE

Req: Lab note: confirm whether the reported IC50 for this compound is below 4 nM, equality not counting. compound: COc1ccc(C[C@H](N)C(=O)N[C@H]2[C@@H](O)[C@H](n3cnc4c(N(C)C)ncnc43)O[C@@H]2CO)cc1 [Puromycin]
Resp: FALSE

Req: Lab note: confirm whether the reported IC50 for this compound is below 4 nM, equality not counting. compound: Cc1nc(N)nc(N)c1-c1ccc(Cl)c(Cl)c1 [Metoprine]
Resp: FALSE

Req: Lab note: confirm whether the reported IC50 for this compound is below 4 nM, equality not counting. compound: COc1cc([C@@H]2c3cc4c(cc3[C@@H](O[C@@H]3O[C@@H]5CO[C@@H](C)O[C@H]5[C@H](O)[C@H]3O)[C@H]3COC(=O)[C@H]23)OCO4)cc(OC)c1O [Etoposide]
Resp: FALSE

Req: Lab note: confirm whether the reported IC50 for this compound is below 4 nM, equality not counting. compound: COc1cccc2c1C(=O)c1c(O)c3c(c(O)c1C2=O)C[C@@](O)(C(=O)CO)C[C@@H]3O[C@H]1C[C@H](N)[C@H](O)[C@H](C)O1 [Doxorubicin]
Resp: FALSE

----------
- System: T19 cells
- TEST_DESCRIPTION: cells
- Type: cell-based, Chinese hamster
- RUN_PARAMETERS: hamster, t19 vs aa8 cells
MEASUREMENT_KIND: Resistance (-fold), clonogenic assay, T19 versus AA8

Req: Which measured Resistance (-fold), clonogenic assay, T19 versus AA8 value corresponds to COc1cccc2c1C(=O)c1c(O)c3c(c(O)c1C2=O)C[C@@](O)(C(C)=O)C[C@@H]3O[C@H]1C[C@H](N)[C@H](O)[C@H](C)O1 ?
Resp: 84.1 -fold

Req: Which measured Resistance (-fold), clonogenic assay, T19 versus AA8 value corresponds to CC[C@]1(O)C[C@@H]2CN(CCc3c([nH]c4ccccc34)[C@@](C(=O)OC)(c3cc4c(cc3OC)N(C)[C@H]3[C@@](O)(C(=O)OC)[C@H](OC(C)=O)[C@]5(CC)C=CCN6CC[C@]43[C@@H]65)C2)C1 ?
Resp: 26.7 -fold

Req: Which measured Resistance (-fold), clonogenic assay, T19 versus AA8 value corresponds to Cc1nc(N)nc(N)c1-c1ccc(Cl)c(Cl)c1 ?
Resp: 2.7 -fold

Req: Which measured Resistance (-fold), clonogenic assay, T19 versus AA8 value corresponds to CC[C@]1(O)C[C@H]2CN(CCc3c([nH]c4ccccc34)[C@@](C(=O)OC)(c3cc4c(cc3OC)N(C=O)[C@H]3[C@@](O)(C(=O)OC)[C@H](OC(C)=O)[C@]5(CC)C=CCN6CC[C@]43[C@@H]65)C2)C1 ?
Resp: 28.1 -fold

Req: Which measured Resistance (-fold), clonogenic assay, T19 versus AA8 value corresponds to COc1ccc(C[C@H](N)C(=O)N[C@H]2[C@@H](O)[C@H](n3cnc4c(N(C)C)ncnc43)O[C@@H]2CO)cc1 ?
Resp: 25.8 -fold

Req: Which measured Resistance (-fold), clonogenic assay, T19 versus AA8 value corresponds to CN(Cc1cnc2nc(N)nc(N)c2n1)c1ccc(C(=O)N[C@@H](CCC(=O)O)C(=O)O)cc1 [Methotrexate] ?
Resp: 1.2 -fold

Req: Which measured Resistance (-fold), clonogenic assay, T19 versus AA8 value corresponds to COc1cc(NCc2ccc3nc(N)nc(N)c3c2C)cc(OC)c1OC [Trimetrexate] ?
Resp: 28.6 -fold
